Assignment: determine reported Increase in Sensitivity for the given molecules.
System: S. typhi
Test: Irradiation sensitivity of S. typhi in chicken breast
Format: cell-based, Salmonella typhi (ATCC 19430)
Conditions: vs control; chicken breast; trans-cinnamaldehyde 0.030%, tetrasodium pyrophosphate 0.003%, carvacrol 0.038%, thymol […]
Field format: number, assumed %, no unit text.

Return Increase in Sensitivity (reported value) for this molecule: O=P([O-])([O-])OP(=O)([O-])[O-].[Na+].[Na+].[Na+].[Na+] [Tetrasodium pyrophosphate, tetrasodium pyrophosphate] 19.1

Specify measured Increase in Sensitivity for Cc1ccc(C(C)C)cc1O . 17.3

Quote Increase in Sensitivity reported for O=C/C=C/c1ccccc1 [Trans-cinnamaldehyde, trans-cinnamaldehyde] please. 47.0

Please give measured Increase in Sensitivity of the following entry: Cc1ccc(C(C)C)c(O)c1 11.4

====

Tested on: E. coli
Assay: Irradiation sensitivity of E. coli in chicken breast
Format: cell-based, Escherichia coli (ATCC 25922)
Conditions: chicken breast, 4° C.; trans-cinnamaldehyde 0.050%, thymol 0.038%, tetrasodium pyrophosphate 0.003%, carvacrol 0.029%
Marks after values point to notes of the source that are not given here.
Assign D10(kGy) to each entry below.

Determine from records and report D10(kGy) for O=P([O-])([O-])OP(=O)([O-])[O-].[Na+].[Na+].[Na+].[Na+] [Tetrasodium pyrophosphate, tetrasodium pyrophosphate] 0.141 ± 0.012^bc kGy

Name the recorded D10(kGy) of the item O=C/C=C/c1ccccc1 [Trans-cinnamaldehyde, trans-cinnamaldehyde] in your answer. 0.098 ± 0.006^a kGy

Check the records and state D10(kGy) for Cc1ccc(C(C)C)c(O)c1 0.131 ± 0.007^b kGy

State its D10(kGy) for this molecule: Cc1ccc(C(C)C)cc1O 0.145 ± 0.003^c kGy
